molecular target: Leucyl-tRNA synthetase (LeuRS) (Escherichia coli (strain K12)); experiment: Leucyl-tRNA synthetase enzyme inhibition (AMP-Glo; single point % inhibition at 100 μM and IC50); type: biochemical; details: E. coli LeuRS; read-out: Enzyme Inhibition - IC50, E. coli LeuRS
Sequence (P07813 whole entry, looked up): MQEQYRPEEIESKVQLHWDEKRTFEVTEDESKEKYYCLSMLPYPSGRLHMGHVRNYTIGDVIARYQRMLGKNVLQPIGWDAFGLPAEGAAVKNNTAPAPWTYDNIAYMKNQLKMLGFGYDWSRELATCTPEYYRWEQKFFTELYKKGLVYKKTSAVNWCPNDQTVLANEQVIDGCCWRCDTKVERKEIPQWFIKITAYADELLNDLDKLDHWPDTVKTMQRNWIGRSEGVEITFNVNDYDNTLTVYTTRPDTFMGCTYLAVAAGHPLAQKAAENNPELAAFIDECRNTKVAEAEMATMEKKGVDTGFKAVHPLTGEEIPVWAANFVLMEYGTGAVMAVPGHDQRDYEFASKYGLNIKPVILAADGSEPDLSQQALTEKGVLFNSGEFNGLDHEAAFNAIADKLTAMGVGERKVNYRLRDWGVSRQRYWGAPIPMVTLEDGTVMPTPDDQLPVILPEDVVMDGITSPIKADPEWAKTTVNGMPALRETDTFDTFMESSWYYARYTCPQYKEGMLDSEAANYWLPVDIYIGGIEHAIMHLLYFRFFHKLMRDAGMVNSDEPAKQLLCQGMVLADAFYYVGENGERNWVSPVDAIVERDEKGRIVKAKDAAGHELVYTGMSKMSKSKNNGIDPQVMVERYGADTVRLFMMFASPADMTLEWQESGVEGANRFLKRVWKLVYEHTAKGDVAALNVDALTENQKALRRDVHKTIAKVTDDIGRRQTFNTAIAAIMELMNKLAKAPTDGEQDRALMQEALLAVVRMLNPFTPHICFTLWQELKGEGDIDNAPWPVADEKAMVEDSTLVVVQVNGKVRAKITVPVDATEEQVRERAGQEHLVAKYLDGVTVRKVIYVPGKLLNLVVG
pIC50: −log10 of the molar value.
measureName: pIC50

INSERT INTO measurements (molecule, experimentalresult) VALUES
  ('CC(C)C[C@H](N)C(=O)N=[S@@](N)(=O)c1cccc(C(C)(C)C)c1 [ANASIA-049-2]', 5.58),
  ('Cc1cccc(S(N)(=O)=NC(=O)[C@@H](N)CC(C)C)c1 (stereo partly shown) [ANASIA-005]', 6.42),
  ('CC(C)C[C@H](N)C(=O)N=[S@@](N)(=O)c1cc(Cl)c(Cl)s1 [ANASIA-121-2]', 5.96),
  ('CC(C)C[C@H](N)C(=O)N=S(N)(=O)c1ccccc1O (stereo partly shown) [ANASIA-113]', 5.49),
  ('CC(C)C[C@H](N)C(=O)N=[S@@](N)(=O)c1ccc(Cl)s1 [ANASIA-009-2]', 6.83),
  ('CC(C)C[C@H](N)C(=O)N=[S@](N)(=O)c1cccs1.Cl (single isomer, unassigned) [ANASIA-007-1, hydrochloride]', 7.20),
  ('CC(C)C[C@H](N)C(=O)N=S(N)(=O)c1cc(C#N)ccc1F (stereo partly shown) [ANASIA-065]', 6.17),
  ('CC(C)C[C@H](N)C(=O)N=S(N)(=O)c1cccnc1 (stereo partly shown) [ANASIA-006]', 6.15),
  ('Cc1ccc([S@](N)(=O)=NC(=O)[C@@H](N)CC(C)C)s1 [ANASIA-014-2]', 5.40),
  ('CC(C)C[C@H](N)C(=O)N=[S@@](N)(=O)c1scc(F)c1F [ANASIA-103-2]', 6.68);

* * *

test system: bacteria (ATCC reference strains); test: Antibacterial activity, MIC by broth micro-dilution (CLSI); details: Enterobacter cloacae, read-out: Antibacterial Activity (MIC), B = Enterobacter cloacae B1966
Measured MIC, listed per entry.
measureName: MIC (µg/mL)

INSERT INTO measurements (molecule, unitofmeasure, operator, experimentalresult) VALUES
  ('CC(C)C[C@H](N)C(=O)N=[S@](N)(=O)c1sccc1Cl.Cl', 'µg/mL', '=', 32),
  ('CCc1ccsc1[S@@](N)(=O)=NC(=O)[C@@H](N)CC(C)C.Cl', 'µg/mL', '=', 32),
  ('CC[C@H](C)[C@H](N)C(=O)N=[S@@](N)(=O)c1ccc(C)s1.Cl', 'µg/mL', '=', 64),
  ('CC(C)C[C@H](N)C(=O)N=S(N)(=O)c1cccc(Cl)c1F (stereo partly shown) [ANASIA-001, 2,2,2-trifluoroacetate]', 'µg/mL', '>', 64),
  ('CC[C@H](C)[C@H](N)C(=O)N=S(N)(=O)c1cc2sccc2s1 (stereo partly shown)', 'µg/mL', '>', 64),
  ('CC(C)C[C@H](N)C(=O)N=[S@](N)(=O)c1cccs1.Cl (single isomer, unassigned)', 'µg/mL', '=', 8),
  ('CC[C@H](C)[C@H](N)C(=O)N=S(N)(=O)c1ccc(C(F)F)s1 (stereo partly shown)', 'µg/mL', '>', 64),
  ('CC(C)C[C@H](N)C(=O)N=[S@](N)(=O)c1ccsc1.Cl', 'µg/mL', '=', 8),
  ('Cc1cc([S@@](N)(=O)=NC(=O)[C@@H](N)CC(C)C)cs1.Cl', 'µg/mL', '=', 16),
  ('CC(C)C[C@H](N)C(=O)N=[S@](N)(=O)c1ccccc1.Cl', 'µg/mL', '=', 16),
  ('CC(C)C[C@H](N)C(=O)N=[S@](N)(=O)c1cccc(Cl)c1.Cl', 'µg/mL', '=', 8),
  ('CC(C)C[C@H](N)C(=O)N=[S@](N)(=O)c1cccc(Br)c1.Cl', 'µg/mL', '=', 16),
  ('CC(C)C[C@H](N)C(=O)N=[S@](N)(=O)c1cc(F)ccc1F.Cl', 'µg/mL', '>', 64),
  ('CC(C)C[C@H](N)C(=O)N=[S@](N)(=O)c1cc(Cl)cs1.Cl', 'µg/mL', '=', 8),
  ('CC(C)C[C@H](N)C(=O)N=[S@](N)(=O)c1cccc(OC(F)F)c1.Cl', 'µg/mL', '=', 64),
  ('Cc1csc([S@@](N)(=O)=NC(=O)[C@@H](N)CC(C)C)c1.Cl', 'µg/mL', '=', 8),
  ('Cc1ccc([S@@](N)(=O)=NC(=O)[C@@H](N)CC(C)C)s1.Cl', 'µg/mL', '=', 16),
  ('CC(C)C[C@H](N)C(=O)N=[S@](N)(=O)c1cccc(C#N)c1.Cl', 'µg/mL', '>', 64),
  ('CC[C@H](C)[C@H](N)C(=O)N=S(N)(=O)c1cc2ccccc2s1 (stereo partly shown)', 'µg/mL', '>', 64),
  ('CC[C@H]1OC(=O)[C@H](C)[C@@H](O[C@H]2C[C@@](C)(OC)[C@@H](O)[C@H](C)O2)[C@H](C)[C@@H](O[C@@H]2O[C@H](C)C[C@H](N(C)C)[C@H]2O)[C@](C)(O)C[C@@H](C)CN(C)[C@H](C)[C@@H](O)[C@]1(C)O', 'µg/mL', '=', 16),
  ('CC(C)C[C@H](N)C(=O)N=S(N)(=O)c1sccc1Cl (stereo partly shown)', 'µg/mL', '=', 64),
  ('CC(C)C[C@H](N)C(=O)N=[S@@](N)(=O)c1cccc(Cl)c1.Cl', 'µg/mL', '>', 64),
  ('CC(C)C[C@H](N)C(=O)N=[S@](N)(=O)c1cccc(Cl)c1Cl.Cl', 'µg/mL', '>', 64),
  ('Cc1cccc([S@](N)(=O)=NC(=O)[C@@H](N)CC(C)C)c1', 'µg/mL', '=', 64),
  ('CC(C)C[C@H](N)C(=O)N=[S@](N)(=O)c1csc(Cl)c1.Cl', 'µg/mL', '=', 4),
  ('CC[C@H](C)[C@H](N)C(=O)N=[S@@](N)(=O)c1ccc(Cl)s1.Cl', 'µg/mL', '>', 64),
  ('CC(C)C[C@H](N)C(=O)N=[S@@](N)(=O)c1ccccc1F.Cl', 'µg/mL', '=', 64),
  ('CC(C)C[C@H](N)C(=O)N=S(N)(=O)c1cccc(Cl)c1 (stereo partly shown)', 'µg/mL', '>', 45.3),
  ('CC(C)C[C@H](N)C(=O)N=[S@](N)(=O)c1ccsc1C(F)F.Cl', 'µg/mL', '>', 64),
  ('CC(C)C[C@H](N)C(=O)N=S(N)(=O)c1cccnc1 (stereo partly shown)', 'µg/mL', '>', 64),
  ('Cc1cccc(S(N)(=O)=NC(=O)[C@@H](N)CC(C)C)c1 (stereo partly shown)', 'µg/mL', '=', 32),
  ('CC(C)C[C@H](N)C(=O)N=[S@](N)(=O)c1csc2ccsc12.Cl', 'µg/mL', '=', 16),
  ('CC(C)C[C@H](N)C(=O)N=S(N)(=O)c1ccccc1 (stereo partly shown)', 'µg/mL', '=', 16),
  ('Cc1csc([S@@](N)(=O)=NC[C@@H](N)CC(C)C)n1', 'µg/mL', '>', 64);
